- System: P388 leukemia ip, CD2F1 mice, survival T/C
- experiment: NCI In Vivo Anticancer Drug Screen. Data for tumor model P388 Leukemia (intraperitoneal) in CD2F1 (CDF1) mice
- assay context: endpoint: median survival time; dose: 60.0 mg/kg/injection; schedule: Q01DX005 (ip); vehicle: Klucel (hydroxypropylcellulose) (HPC); higher = longer survival
Toxic doses and inconclusive results are not listed.
Reported values of T/C for individual entries

Below, 5 compounds whose answers are already recorded.
CC1=CC(=C2C(=O)c3ccccc3C2=O)C=C(C)N1CCNCCO :: 99 % of control
C1C2CC3C1C1OC3C21 :: 100 % of control
CCN(CC)C1C2=C(CCCC2)OS(=O)(=O)C1c1ccccc1 (stereo not given) :: 103 % of control
CC(=O)OC1CSc2ccccc2N(C(C)=O)C1 (stereo not given) :: 104 % of control
CCc1cccc(CC)c1N1CC(C(=O)O)CC1=O (stereo not given) :: 107 % of control

Fill in the blank: the reported T/C of Cc1ccc(-c2nc3scc(C)n3n2)cc1 is ____.
100 % of control

Fill in the blank: the reported T/C of Cc1ccc(NC(=O)Oc2ccc(C#N)cc2)cc1Cl is ____.
118 % of control

Fill in the blank: the reported T/C of CC1C(c2ccccc2)OCN1CC=C(c1ccsc1)c1ccsc1 (stereo not given) is ____.
96 % of control

Fill in the blank: the reported T/C of O=C1C(=O)c2ccc3c(c2-c2cc4c(cc21)OCO4)OCO3 is ____.
86 % of control

Fill in the blank: the reported T/C of O=C(CCCO)c1nc2ccccc2s1 is ____.
106 % of control
